This listing pairs compounds with measured Tmax.
Experiment: Multi-component pharmacokinetic study of GQD, GQD-GC and single herb extracts in rats (plasma, LC/MS/MS)
Assay type: in vivo, Sprague-Dawley rats
Settings: male, Sprague-Dawley, rat, in vivo; GQD group: rats, oral GQD extract 18.9 g/kg, plasma; read-out: Tmax
Excerpt: Male Sprague-Dawley rats (220–250 g) were used for PK study, and the details were described in Supplemental Data. All procedures were in accordance with the National Institutes of Health Guide for the Care and Use of Laboratory Animals. […] A Finnigan TSQ Quantum triple quadrupole mass spectrometer was connected to a Surveyor HPLC via ESI interface (ThermoFisher). […] Analytes were detected in the selected reaction monitoring (SRM) mode. […]

Compound | Tmax
O=c1c(-c2ccc(O)cc2)coc2cc(O[C@@H]3O[C@H](CO)[C@@H](O)[C@H](O)[C@H]3O)ccc12 | 52.8 min
O=C(/C=C/c1ccc(O[C@@H]2O[C@H](CO)[C@@H](O)[C@H](O)[C@H]2O)cc1)c1ccc(O)cc1O | 29.4 min
COc1cc(-c2coc3c(C4OC(COC5OCC(O)(CO)C5O)C(O)C(O)C4O)c(O)ccc3c2=O)ccc1O (stereo not shown) | 21.6 min
O=c1c(-c2ccc(O)cc2)coc2cc(O)ccc12 | 480 min
